# TARGET_DESC: anti-CD28 Fab
# Sequence (VH, as listed by the source, chain 1 of 2): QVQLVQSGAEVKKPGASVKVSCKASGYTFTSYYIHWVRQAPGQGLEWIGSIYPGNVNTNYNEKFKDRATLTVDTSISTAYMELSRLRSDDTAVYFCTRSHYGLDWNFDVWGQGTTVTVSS
# Sequence (VL, as listed by the source, chain 2 of 2): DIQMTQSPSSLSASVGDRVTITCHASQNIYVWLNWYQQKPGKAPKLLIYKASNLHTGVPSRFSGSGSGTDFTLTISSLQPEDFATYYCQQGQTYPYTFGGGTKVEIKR
# ASSAY_DETAILS: competition ELISA, peptide titrated 0-100 uM against 1 nM anti-CD28 Fab, plate-bound CD28 as competitor
pIC50: −log10 of the molar value.
OBSERVED_PROPERTY: pIC50

{"columns": ["BINDER", "OBSERVED_PROPERTY", "SIGN", "MEASURED_NUMBER"],
 "data": [
  ["YCEGHAPEYIRKCL [Peptide-122]", "pIC50", "=", 5.65],
  ["HCSGHHWLQVWKCF [Peptide-130]", "pIC50", "<", 4.00],
  ["YCEGHSQEYLWKCL [Peptide-128]", "pIC50", "=", 5.02],
  ["YCEGHEGIYFWKCL [Peptide-119]", "pIC50", "=", 4.11],
  ["YCEGHLPEYLEKCV [Peptide-133]", "pIC50", "=", 5.54],
  ["YCEGHAPEYIGKCL [Peptide-136]", "pIC50", "=", 5.39]
]}
